These measurements were taken from ChEMBL document CHEMBL5724801.

- Test system: U2OS
- Procedure Details: Multiplex assay against U2OS
- Format: toxicity, cell-based
- Test Settings: human, 48 h, 1 µM, compound concentration 1 uM
Quantity Kind: Population Normal (%)
Unit % implied. Number only.

O=C(NCCO)c1cccc(-c2cc(Nc3ccc(OC(F)(F)F)cc3)ncn2)c1: 97
COc1ccc(-n2c(C)c([N+](=O)[O-])c3ccc(O)cc32)cc1: 100

Lab note: next compound to report on.
Record "CCCOc1ccc2[nH]cc(C3=CCNCC3)c2n1.Cl" , field Population Normal (%): 97

* * *

Reported values of Population Normal (%) for individual entries
- Tested on: HEK-293T
- Procedure Details: Multiplex assay against HEK293T
- Format: toxicity, cell-based
- Test Settings: human, 12 h, 1 µM, compound concentration 1 uM
Unit % implied. Number only.

Form field, Population Normal (%) with HEK-293T, item "CC(C)CC(=O)Nc1cncc(-c2ccc3[nH]nc(-c4nc5c(-c6cccc(F)c6)cncc5[nH]4)c3c2)c1" : 100

* * *

Reported values of Population Hoechst High Intensity Objects (%) for individual entries
- Test system: U2OS
- Procedure Details: Multiplex assay against U2OS
- Format: toxicity, cell-based
- Test Settings: human, 24 h, 10 µM, compound concentration 10 uM

Example compounds with recorded Population Hoechst High Intensity Objects (%):
Cl.c1ccc2c(c1)CCC[C@H]2Nc1nc2ccccc2[nH]1: 0%
COc1ccc(Cl)cc1[C@]1(F)C(=O)Nc2cc(C(F)(F)F)ccc21 [FLINDOKALNER]: 0%
C[C@H](N)COC(=O)[C@@H](CCCCN)NC(=O)Cc1c(-c2ccc3ccccc3c2)[nH]c2c1ccc1ccccc12: 2%
CCOc1ccccc1C(=O)NCC1(N2CCN(CC)CC2)CCCCC1: 0%

Record "O=C1COc2nccc(-c3ccccc3F)c2CN1Cc1cc(C(F)(F)F)cc(C(F)(F)F)c1" , field Population Hoechst High Intensity Objects (%): 5%

* * *

- Test system: U2OS
- Procedure Details: Multiplex assay against U2OS
- Format: toxicity, cell-based
- Test Settings: human, 48 h, 1 µM, compound concentration 1 uM
Non-standard residues stand in square brackets, D forms with d. Residues, ends and D or L forms follow the SMILES beside them.
Reported values of Population Hoechst High Intensity Objects (%) for individual entries
Unit % implied. Number only.

Example compounds with recorded Population Hoechst High Intensity Objects (%):
Br.CS(=O)(=O)Nc1c(O)ccc2c1CCCC2C1=NCCN1 (configuration not stated): 1
O=C(Nc1cc(C(F)(F)F)cc(C(F)(F)F)c1)c1cc(Cl)ccc1O: 0
Clc1ccccc1C(c1ccccc1)(c1ccccc1)n1cccn1: 0
O=C(NCCO)c1cccc(-c2cc(Nc3ccc(OC(F)(F)F)cc3)ncn2)c1: 2
Cl.c1ccc2c(c1)CCC[C@H]2Nc1nc2ccccc2[nH]1: 0
CC(C)C[C@@H]1NC(=O)[C@@H](C(C)C)NC(=O)[C@@H]2CCCN2C(=O)[C@@H](CC(=O)O)NC(=O)[C@@H](Cc2c[nH]c3ccccc23)NC1=O [BQ-123] (cyclo(L[dW][dD]P[dV])): 1

Record "CN(C)c1ccnc2sc3c(=O)n(N4CCCCCC4)cnc3c12" , field Population Hoechst High Intensity Objects (%): 2

* * *

Reported values of Population Normal (%) for individual entries
- Test system: HEK-293T
- Procedure Details: Multiplex assay against HEK293T
- Assay type: toxicity, cell-based
- Test Settings: human, 12 h, 1 µM, compound concentration 1 uM
Unit % implied. Number only.

COc1ccc(Cl)cc1[C@]1(F)C(=O)Nc2cc(C(F)(F)F)ccc21: 100

Record "O=c1ccc2ccc(OCCCCN3CCN(c4cccc5sccc45)CC3)cc2[nH]1" , field Population Normal (%): 93

Record "Clc1ccccc1C(c1ccccc1)(c1ccccc1)n1cccn1" , field Population Normal (%): 100

Record "CN(C)CCOc1ccc(/C(=C(/CCCO)c2ccccc2)c2ccc(O)cc2)cc1" , field Population Normal (%): 100
